test_details: in vivo
Assay type: in vivo, C57BL/6 mice
setup_conditions: female, C57BL/6, mouse, in vivo; suggested from toxicities at higher dose; read-out: MTD in tumor-bearing animals
observable: MTD
# number then unit; no other words

Enquiry: Which measured MTD value corresponds to CC1/C(=C\c2ccc([N+](=O)[O-])cc2)C(=O)/C(=C/c2ccc([N+](=O)[O-])cc2)CN1C(=O)[C@H](Cc1ccccc1)NC(=O)CCl (stereo partly shown) ?
Return: 3 mg/kg

###

Some compounds, each annotated with its measured pIC50.
System: PEO4
test_details: cells
setup_conditions: PEO4, read-out: cytotoxicity IC50 PEO4
FYI, pIC50 means -log10 of a concentration in mol per litre.

1) N[C@@H](Cc1ccccc1)C(=O)N1C/C(=C\c2ccc(Cl)c(Cl)c2)C(=O)/C(=C/c2ccc(Cl)c(Cl)c2)C1 [RA190, reference compound] : 6.77
2) C[C@H]1/C(=C\c2ccc([N+](=O)[O-])cc2)C(=O)/C(=C/c2ccc([N+](=O)[O-])cc2)CN1C(=O)[C@@H](N)Cc1ccccc1 : 7.39
3) CC1/C(=C\c2ccc([N+](=O)[O-])cc2)C(=O)/C(=C/c2ccc([N+](=O)[O-])cc2)CN1C(=O)[C@H](Cc1ccccc1)NC(=O)CCl (stereo partly shown) : 7.52

Enquiry: # pIC50 lookup, item CC(C)C[C@H](NC(=O)[C@H](Cc1ccccc1)NC(=O)c1cnccn1)B(O)O [Bortezomib, bortezomib, reference compound]
Return: 7.51

###

System: HeLa
test_details: MTT cytotoxicity assay, HeLa
setup_conditions: read-out: cytotoxicity IC50 HeLa, Tables 3A/4B/4C
pIC50: −log10 of the molar value.
Assign 1 (yes) whenever pIC50 does not fall below 7; assign 0 (no) whenever it does.

1) CC1NCC(=Cc2ccc([N+](=O)[O-])cc2)C(=O)C1=Cc1ccc([N+](=O)[O-])cc1 (racemic) [RA411] : 1 (yes)
2) CC1/C(=C\c2ccc([N+](=O)[O-])cc2)C(=O)/C(=C/c2ccc([N+](=O)[O-])cc2)CN1C(=O)[C@H](Cc1ccccc1)NC(=O)CCl (stereo partly drawn) [RA414] : 1 (yes)
3) CC(C)C[C@H](NC(=O)[C@H](Cc1ccccc1)NC(=O)c1cnccn1)B(O)O [Bortezomib, bortezomib, reference compound] : 1 (yes)

Enquiry: Check if pIC50 >= 7 (inclusive). Item: C[C@@H]1/C(=C\c2ccc([N+](=O)[O-])cc2)C(=O)/C(=C/c2ccc([N+](=O)[O-])cc2)CN1C(=O)[C@@H](N)Cc1ccccc1 [RA413R]
Return: 0 (no)

###

Test system: CaSki
test_details: MTT cytotoxicity assay, CaSki
setup_conditions: read-out: IC50 CaSki
observable: IC50 (nM)
The figure you give is taken to be in nM; do not add the unit.

Enquiry: Which measured IC50 value corresponds to O=C(CCl)N[C@@H](Cc1ccccc1)C(=O)N1C/C(=C\c2ccc([N+](=O)[O-])cc2)C(=O)/C(=C/c2ccc([N+](=O)[O-])cc2)C1 [RA375] ?
Return: 43

###

Test system: OVCAR3
test_details: MTT cytotoxicity assay, OVCAR3
setup_conditions: read-out: IC50 OVCAR3; Table 3; MTT, 48 hr; Ovarian
observable: IC50 (nM)
The reply should be a number in nM, with the unit left off.

Enquiry: Need IC50 of N[C@@H](Cc1ccccc1)C(=O)N1C/C(=C\c2ccc([N+](=O)[O-])cc2)C(=O)/C(=C/c2ccc([N+](=O)[O-])cc2)C1 [RA183, reference compound] , thanks.
Return: 78

###

System: RPE1-ATMKO
observable: IC50 (nM)
Numbers only; they are read as nM.

Enquiry: Under RPE1-ATMKO: IC50 value of C=CC(=O)N1CC/C(=C\c2ccc(F)c([N+](=O)[O-])c2)C(=O)/C(=C/c2ccc(F)c([N+](=O)[O-])c2)C1 ?
Return: 963

###

In this section, each of the molecules is paired with its reported IC50.
System: ES2
test_details: MTT cytotoxicity assay, ES2
setup_conditions: read-out: cytotoxicity IC50 ES2; Tables 3A/4B/4C; MTT assay
The response must be a number in nM with no trailing unit.

Examples from the recorded data:
1. CC1/C(=C\c2ccc([N+](=O)[O-])cc2)C(=O)/C(=C/c2ccc([N+](=O)[O-])cc2)CN1C(=O)[C@H](Cc1ccccc1)NC(=O)CCl (stereo partly drawn) [RA414] : 7.5
2. C[C@H]1/C(=C\c2ccc([N+](=O)[O-])cc2)C(=O)/C(=C/c2ccc([N+](=O)[O-])cc2)CN1C(=O)[C@@H](N)Cc1ccccc1 : 40

Now consider a different molecule.
Enquiry: Dear colleague, I am looking for the recorded IC50 of the following molecule: N[C@@H](Cc1ccccc1)C(=O)N1C/C(=C\c2ccc(Cl)c(Cl)c2)C(=O)/C(=C/c2ccc(Cl)c(Cl)c2)C1 [RA190, reference compound]
Return: 115

###

Tested on: CaSki
test_details: MTT cytotoxicity assay, CaSki
setup_conditions: read-out: cytotoxicity IC50 CasKi; Tables 3A/4B/4C; MTT assay
# maps each entry to its log10 of IC50
A value of 2 here means IC50 of 100 in nM, since values are log10.

# count of solved cases: 4
1. C[C@H]1/C(=C\c2ccc([N+](=O)[O-])cc2)C(=O)/C(=C/c2ccc([N+](=O)[O-])cc2)CN1C(=O)[C@@H](N)Cc1ccccc1 : 1.43
2. C[C@@H]1/C(=C\c2ccc([N+](=O)[O-])cc2)C(=O)/C(=C/c2ccc([N+](=O)[O-])cc2)CN1C(=O)[C@@H](N)Cc1ccccc1 [RA413R] : 2.34
3. N[C@@H](Cc1ccccc1)C(=O)N1C/C(=C\c2ccc([N+](=O)[O-])cc2)C(=O)/C(=C/c2ccc([N+](=O)[O-])cc2)C1 [RA183, reference compound] : 2.49
4. O=C(CCl)N[C@@H](Cc1ccccc1)C(=O)N1C/C(=C\c2ccc([N+](=O)[O-])cc2)C(=O)/C(=C/c2ccc([N+](=O)[O-])cc2)C1 : 0.48

Now for a further compound.
Enquiry: For the compound shown here, N[C@@H](Cc1ccccc1)C(=O)N1C/C(=C\c2ccc(Cl)c(Cl)c2)C(=O)/C(=C/c2ccc(Cl)c(Cl)c2)C1 [RA190, reference compound] , give the reported log10 of IC50.
Return: 2.51
